test system: HepG2 cells; experiment: HepG2 cytotoxicity; format: cell-based, human; conditions: Homo sapiens, HepG2, 72 h, 3 days exposure, CellTiter-Glo
measured.attribute: IC50 (µM)

[
  {
    "compound": "CCCCCCNc1nc2ccccc2s1",
    "experimental.target": "HepG2 cells",
    "units.text": "µM",
    "value.modifier": "=",
    "observed.result": 55
  },
  {
    "compound": "CCCCNC(=S)Nc1nc(C)cs1",
    "experimental.target": "HepG2 cells",
    "units.text": "µM",
    "value.modifier": ">",
    "observed.result": 100
  },
  {
    "compound": "CCCCNC(=S)Nc1nc2cc(Cl)ccc2o1",
    "experimental.target": "HepG2 cells",
    "units.text": "µM",
    "value.modifier": "=",
    "observed.result": 9
  },
  {
    "compound": "COCCCNC(=S)Nc1nc2ccccc2s1",
    "experimental.target": "HepG2 cells",
    "units.text": "µM",
    "value.modifier": "=",
    "observed.result": 65
  },
  {
    "compound": "CCCCNC(=S)Nc1nc(C)c[nH]1",
    "experimental.target": "HepG2 cells",
    "units.text": "µM",
    "value.modifier": "=",
    "observed.result": 61
  },
  {
    "compound": "CCCCNC(=S)Nc1ncc(C)o1",
    "experimental.target": "HepG2 cells",
    "units.text": "µM",
    "value.modifier": "=",
    "observed.result": 32
  },
  {
    "compound": "CCCCNC(=S)NC1=NCCS1",
    "experimental.target": "HepG2 cells",
    "units.text": "µM",
    "value.modifier": "=",
    "observed.result": 75
  },
  {
    "compound": "CCCCNC(=S)Nc1ccc2scnc2c1 [Molecule 30, 1-(benzo[d]thiazol-5-yl)-3-butylthiourea]",
    "experimental.target": "HepG2 cells",
    "units.text": "µM",
    "value.modifier": ">",
    "observed.result": 100
  },
  {
    "compound": "CCCCNC(=S)Nc1ccnn1C",
    "experimental.target": "HepG2 cells",
    "units.text": "µM",
    "value.modifier": ">",
    "observed.result": 100
  },
  {
    "compound": "CCCCNC(=S)Nc1nc2ccc(Cl)cc2o1",
    "experimental.target": "HepG2 cells",
    "units.text": "µM",
    "value.modifier": "=",
    "observed.result": 32
  }
]

----------
test: in vitro; details: human, Caco-2

[
  {
    "molecule": "CCCCNC(=S)Nc1nc2ccccc2s1 [Molecule 1, 1-(benzo[d]thiazol-2-yl)-3-butylthiourea]",
    "units.text": "×10⁻⁶ cm/s",
    "Papp B→A at 2 h, 10 µM": 2.5
  },
  {
    "molecule": "CCCCNC(=S)Nc1nc(C)co1",
    "units.text": "×10⁻⁶ cm/s",
    "Papp B→A at 2 h, 10 µM": 19
  },
  {
    "molecule": "CCCCNC(=S)Nc1nc2ccccc2o1 [Molecule 12, 1-(benzo[d]oxazol-2-yl)-3-butylthiourea]",
    "units.text": "×10⁻⁶ cm/s",
    "Papp B→A at 2 h, 10 µM": 5.8
  },
  {
    "molecule": "CCCCNC(=S)Nc1nccs1",
    "units.text": "×10⁻⁶ cm/s",
    "Papp B→A at 2 h, 10 µM": 18
  },
  {
    "molecule": "COCCCNC(=S)Nc1nc2ccccc2s1",
    "units.text": "×10⁻⁶ cm/s",
    "Papp B→A at 2 h, 10 µM": 15
  }
]

Origin of measurements: paper PMC9927457
